system: MDA-MB-231 human breast cancer cells; experiment: Cell proliferation assay (CellTiter-Glo, 72 hours treatment); assay type: cell-based; settings: MDA-MB-231 cells, 72 hours at 37° C., CellTiter-Glo; read-out: MDA-MB-231 cell proliferation assay (IC50)
pIC50: −log10 of the molar value.
Each entry below lists one item and its recorded pIC50 value.

{"columns": ["compound", "test system", "pIC50"],
 "data": [
  ["CN(C)C[C@H]1[C@@H](O)[C@@]2(O)c3ncc(C#N)cc3O[C@@]2(c2ccc(C#N)cc2)[C@@H]1c1ccccc1 [105F]", "MDA-MB-231 human breast cancer cells", "< 6.00"]
]}

Let us examine a further case.
Fill in pIC50 for COc1cncc2c1[C@]1(O)[C@H](O)[C@H](CN(C)C)[C@@H](c3ccccc3)[C@]1(c1ccc(C#N)cc1)O2 (single isomer, unassigned) [103F] tested with MDA-MB-231 human breast cancer cells. > 7.00

====

system: MDA-MB-231 human breast cancer cells; assay: Cell proliferation assay (CellTiter-Glo, 72 hours treatment); type: cell-based; details: Homo sapiens; MDA-MB-231 cells, 72 hours at 37° C., CellTiter-Glo; read-out: MDA-MB-231 cell proliferation assay (IC50)
Each entry below lists one item and its recorded IC50 value.

Sample answers from the record:
{"columns": ["compound", "endpoint result"],
 "data": [
  ["COc1nc(Cl)cc2c1[C@]1(O)[C@H](O)[C@H](CN(C)C)[C@@H](c3ccccc3)[C@]1(c1ccc(Cl)cc1)O2 (racemic) [142F]", "< 0.1 µM"],
  ["COc1cncc2c1[C@]1(O)[C@H](O)[C@H](CNCC(F)F)[C@@H](c3ccccc3)[C@]1(c1ccc(C#N)cc1)O2 (single isomer, unassigned) [115F]", "0.1 to 1 µM"],
  ["COc1cncc2c1[C@]1(O)[C@H](O)[C@H](CN3CCN(C(C)=O)CC3)[C@@H](c3ccccc3)[C@]1(c1ccc(C#N)cc1)O2 (racemic) [194F]", "> 1 µM"]
]}

Provide only the value of recorded IC50 for COc1cncc2c1[C@]1(O)[C@H](O)[C@H](CN(C)C)[C@@H](c3ccccc3)[C@]1(c1ccc(C)cc1)O2 (single isomer, unassigned) [256F] < 0.1 µM

Provide only the value of recorded IC50 for COc1cncc2c1[C@]1(O)C(CN3CCOCC3)C[C@@H](c3ccccc3)[C@]1(c1ccc(C(F)(F)F)cc1)O2 (mixture of isomers) [289F] 0.1 to 1 µM

Provide only the value of recorded IC50 for COc1cncc2c1[C@]1(O)[C@H](O)[C@H](C(=O)N3[C@@H]4CCC[C@H]3CC4)[C@@H](c3ccccc3)[C@]1(c1ccc(Br)cc1)O2 (racemic) [114F] < 0.1 µM

====

test system: MDA-MB-231 human breast cancer cells; assay: Cell proliferation assay (CellTiter-Glo, 72 hours treatment); assay type: cell-based; conditions: Homo sapiens; MDA-MB-231 cells, 72 hours at 37° C., CellTiter-Glo; read-out: MDA-MB-231 cell proliferation assay (IC50)
Each entry below lists one item and its recorded IC50 value.

{"columns": ["compound", "test system", "IC50"],
 "data": [
  ["N#Cc1ccc([C@@]23Oc4cc(Cl)cnc4[C@]2(O)[C@H](O)C[C@H]3c2ccccc2)cc1 (racemic) [128F]", "MDA-MB-231 human breast cancer cells", "100 to 1000 nM"],
  ["COc1cncc2c1[C@]1(O)[C@H](O)[C@H](C(=O)N3CCC(F)(F)C3)[C@@H](c3ccccc3)[C@]1(c1ccc(Br)cc1)O2 (racemic) [279F]", "MDA-MB-231 human breast cancer cells", "< 100 nM"],
  ["COc1cncc2c1[C@]1(O)[C@H](O)[C@H](CN3CCNCC3)[C@@H](c3ccccc3)[C@]1(c1ccc(C#N)cc1)O2 (single isomer, unassigned) [67F]", "MDA-MB-231 human breast cancer cells", "100 to 1000 nM"],
  ["NC[C@@H]1C[C@@H](c2ccccc2)[C@]2(c3ccc(Br)cc3)Oc3cc(Cl)cnc3[C@]12O (racemic) [165F]", "MDA-MB-231 human breast cancer cells", "100 to 1000 nM"],
  ["CN(C)C[C@H]1[C@@H](C#N)[C@@]2(O)c3ncc(Cl)cc3O[C@@]2(c2ccc(C#N)cc2)[C@@H]1c1ccccc1 (racemic) [228F]", "MDA-MB-231 human breast cancer cells", "> 1000 nM"]
]}

Let us examine a further case.
Provide only the value of recorded IC50 for COc1cncc2c1[C@]1(O)[C@H](O)[C@H](C(=O)N(C)C)[C@@H](c3ccccc3)[C@]1(c1ccc(Cl)cc1)O2 (racemic) [271F] 100 to 1000 nM
